Assign IC50 ratio (A1R/A2aR) to each entry below.
# tested_system: adenosine A1 receptor (A1R) (Homo sapiens)
# Construct: expressed in transfected cells; host or cells: CHO-K1
# Sequence (P30542 whole entry): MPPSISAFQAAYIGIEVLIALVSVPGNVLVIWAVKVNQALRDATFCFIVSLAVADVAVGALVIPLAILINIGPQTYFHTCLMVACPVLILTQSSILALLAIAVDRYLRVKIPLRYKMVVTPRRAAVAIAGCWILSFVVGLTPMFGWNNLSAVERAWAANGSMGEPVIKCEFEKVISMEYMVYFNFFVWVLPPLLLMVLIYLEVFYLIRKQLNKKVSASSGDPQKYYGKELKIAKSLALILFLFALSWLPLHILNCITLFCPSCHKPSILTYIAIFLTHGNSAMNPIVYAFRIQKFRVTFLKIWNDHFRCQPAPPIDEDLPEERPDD
# experiment: Inhibition of adenosine A1 receptor cAMP signaling pathway in CHO-K1/A1R cells (HTRF cAMP dynamic 2 kit)
# Format: cell-based
# reported_conditions: Table 2; selectivity A1R over A2aR

Asked: Field request: IC50 ratio (A1R/A2aR) | item: Cc1ccc(-c2nc(N)nc3c(Nc4cccc(CO[C@H]5CCOC5)n4)cnn23)o1
Given back: >10^3

Asked: Fill in the blank: the reported IC50 ratio (A1R/A2aR) of Cc1ccc(-c2nc(N)nc3c(Cc4cccc(CO[C@H]5CCOC5)n4)cnn23)o1 is ____.
Given back: >10^3

Asked: What value of measured IC50 ratio (A1R/A2aR) is listed for Cc1ccc(-c2nc(N)nc3c(Cc4cccc(CN5CCN(C)CC5)n4)cnn23)o1 ?
Given back: 714^

Asked: Please give the measured IC50 ratio (A1R/A2aR) for this compound: Cc1ccc(-c2nc(N)nc3c(Cc4cccc(COCCF)n4)cnn23)o1
Given back: 431^

Asked: I'd like to know its IC50 ratio (A1R/A2aR). The compound in question is Cc1ccc(-c2nc(N)nc3c(Nc4cccc(CN5CCOCC5)n4)cnn23)o1
Given back: 150^

Asked: Which IC50 ratio (A1R/A2aR) is listed for Cc1ccc(-c2nc(N)nc3c(Cc4cccc(CO[C@@H]5CCOC5)n4)cnn23)o1 ?
Given back: 790^

Asked: Returns the measured IC50 ratio (A1R/A2aR) for the input compound. Input: Cc1ccc(-c2nc(N)nc3c(Nc4cccc(CO[C@@H]5CCOC5)n4)cnn23)o1
Given back: >10^3

Asked: Recorded IC50 ratio (A1R/A2aR) of Cc1ccc(-c2nc(N)nc3c(Nc4cccc(CN5CC6COCC6C5)n4)cnn23)o1 (centres unmarked) , please.
Given back: 238^

Asked: Return reported IC50 ratio (A1R/A2aR); argument: Cc1ccc(-c2nc(N)nc3c(Cc4cccc(COS(N)(=O)=O)n4)cnn23)o1
Given back: 220^

Asked: I have this compound here, Cc1ccc(-c2nc(N)nc3c(Cc4cccc(CO)n4)cnn23)o1 , and I need its recorded IC50 ratio (A1R/A2aR).
Given back: >10^3

Asked: What value of measured IC50 ratio (A1R/A2aR) is listed for Cc1ccc(-c2nc(N)nc3c(Cc4cccc(CN5CCOCC5)n4)cnn23)o1 ?
Given back: >10^3

Asked: Which IC50 ratio (A1R/A2aR) value is on record for Cc1ccc(-c2nc(N)nc3c(Cc4cccc(CO[C@H]5CCN(C)C5)n4)cnn23)o1 ?
Given back: 90^

Asked: Quick check: IC50 ratio (A1R/A2aR) of Cc1ccc(-c2nc(N)nc3c(Nc4cccc(CO[C@H]5CCOC5)c4F)cnn23)o1 ?
Given back: 731^

Asked: Value lookup for IC50 ratio (A1R/A2aR); key = Cc1ccc(-c2nc(N)nc3c(Cc4cccc(CN5CC6COCC6C5)n4)cnn23)o1 (centres unmarked)
Given back: 294^

Asked: Give the measured IC50 ratio (A1R/A2aR) of Cc1ccc(-c2nc(N)nc3c(Nc4cccc(CO[C@H]5CCOC5)c4)cnn23)o1 .
Given back: >10^3

Asked: GET /values?readout=IC50 ratio (A1R/A2aR)&item= Cc1ccc(-c2nc(N)nc3c(Cc4cccc(COC5CCCC5)n4)cnn23)o1
Given back: 532^

Asked: // lookup IC50 ratio (A1R/A2aR) for Nc1nc(-c2ccco2)n2ncc(Cc3ccccc3)c2n1
Given back: 136^

Asked: Item Cc1ccc(-c2nc(N)nc3c(Nc4cccc(CN5CC6(COC6)C5)n4)cnn23)o1 has what recorded IC50 ratio (A1R/A2aR)?
Given back: 78^

Asked: Consider the compound Cc1ccc(-c2nc(N)nc3c(Oc4cccc(CO[C@H]5CCOC5)n4)cnn23)o1 and give its measured IC50 ratio (A1R/A2aR).
Given back: >10^3

Asked: Any idea what IC50 ratio (A1R/A2aR) was measured for Cc1ccc(-c2nc(N)nc3c(Cc4cccc(CN5CC6(COC6)C5)n4)cnn23)o1 ?
Given back: 288^

Asked: Fill in: IC50 ratio (A1R/A2aR) of Cc1ccc(-c2nc(N)nc3c(Cc4cccc(CO[C@H]5CCOC5)c4)cnn23)o1 is ___
Given back: >10^3

Asked: Return reported IC50 ratio (A1R/A2aR); argument: COCCOCc1cccc(Cc2cnn3c(-c4ccc(C)o4)nc(N)nc23)n1
Given back: 964^

Asked: Entry Nc1nc(-c2ccco2)n2ncc(Cc3ccccc3F)c2n1 has what IC50 ratio (A1R/A2aR)?
Given back: 86^

Asked: Looking for the measured IC50 ratio (A1R/A2aR) of COCc1cccc(Cc2cnn3c(-c4ccc(C)o4)nc(N)nc23)n1 , can you help?
Given back: 725^

Asked: Using the record for Cc1ccc(-c2nc(N)nc3c(Sc4cccc(CO[C@H]5CCOC5)n4)cnn23)o1 , report its IC50 ratio (A1R/A2aR).
Given back: 279^

Asked: Request the reported IC50 ratio (A1R/A2aR) associated with Cc1ccc(-c2nc(N)nc3c(Nc4cccc(CN5CCN(C)CC5)n4)cnn23)o1
Given back: >10^3

Reference source: patent US20210032253A1
